- target.entity: mushroom tyrosinase
- method.summary: Mushroom tyrosinase inhibition assay (L-DOPA, dopachrome formation at 492 nm)
- run.parameters: L-DOPA substrate, pH 6.8, 37 °C; mean ± SD of triplicate experiments; read-out: IC50 against mushroom tyrosinase activity
attribute.measured: IC50 (nM)
Please state the figure in nM; there is no need to write the unit.

// below: answered molecules
smiles.repr | IC50, nM
Cc1ccc(S(=O)(=O)Oc2ccc(/C=N/NC(N)=S)cc2)cc1 | 440
NC(=S)N/N=C/c1ccc(OS(=O)(=O)c2ccc(Cl)cc2)cc1 | 710
CS(=O)(=O)Oc1ccc(/C=N/NC(N)=S)cc1 | 1600
NC(=S)N/N=C/c1ccc(OS(=O)(=O)c2ccccc2)cc1 | 440

Enter measured IC50, system mushroom tyrosinase, for the molecule shown: `NC(=S)N/N=C/c1ccc(OS(=O)(=O)c2ccc([N+](=O)[O-])cc2)cc1` 660

Enter measured IC50, system mushroom tyrosinase, for the molecule shown: `COc1ccc(S(=O)(=O)Oc2ccc(/C=N/NC(N)=S)cc2)cc1` 440

Reference source: paper PMC11643516
